meta.source: the supplement of paper PMC10126150

# System: ATP;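 note: ATP exposure 15 min at 22 °C before imaging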
# METHOD_NOTES: switch fluorescence ratio, 500 uM ATP over buffer (Cy3 cluster intensity, sum of 5 cycles each) (fold (ratio)); higher = stronger signal-on switching upon ATP binding; sequences stand for … in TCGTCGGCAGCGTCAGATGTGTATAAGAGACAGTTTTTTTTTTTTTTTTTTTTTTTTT…TC
# RUN_PARAMETERS: aptamer strand: ATP DNA aptamer (quencher-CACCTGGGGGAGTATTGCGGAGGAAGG + anchor), 100 nM annealed; ATP concentration: 500 uM
Please enter Yes where switch fluorescence ratio is greater than or equal to 1, and No where it is lower.

Before answering, review these 5 worked examples.
Threshold query (switch fluorescence ratio >= 1) on "TATGCAATCA"
Yes

Evaluate "TTTGTAGTTT" : switch fluorescence ratio at minimum 1?
Yes

In plain terms: is recorded switch fluorescence ratio at least 1 for "AGGGAAACGG" ?
No

Determine whether this sequence has switch fluorescence ratio no lower than 1: "CAGGGCGATA"
Yes

Could you tell me if the measured switch fluorescence ratio of "CTTTCAATGG" reaches 1 or more?
Yes

Further cases:
Please check the record "TAGGGGTATG" and state if its switch fluorescence ratio is at or above 1.
Yes

Please tell me: is the sequence "GCTTGGTGCT" at or over 1 in terms of switch fluorescence ratio?
Yes

Is switch fluorescence ratio for "ATCAGCCATA" at or above 1?
Yes

For this sequence, is measured switch fluorescence ratio 1 or higher? "CGGCCGTTCG"
Yes

In plain terms: is recorded switch fluorescence ratio at least 1 for "TTTGTCAGGT" ?
No

Has "GAATTCGGAC" a recorded switch fluorescence ratio greater than or equal to 1?
Yes

Quick check: does "TATCGCCCTC" have switch fluorescence ratio greater than or equal to 1?
Yes

Evaluate "CTTGAAATTC" : switch fluorescence ratio at minimum 1?
Yes

State whether the measured switch fluorescence ratio reaches 1, counting equality as reaching it, for "AAGTACGGAG"
Yes

State whether the measured switch fluorescence ratio reaches 1, counting equality as reaching it, for "AAACTTTTTT"
No
